Numbers sourced from patent US7105516B2.

# EXPERIMENTAL_SYSTEM: human serotonin transporters (Homo sapiens)
# Construct: expressed in transfected cells; membrane homogenates
# ASSAY_PROCEDURE: Serotonin Transporter Binding Assay ([3H]-citalopram displacement, HEK-hSERT cell membranes)
# APPLIED_CONDITIONS: 1 nM [3H]-citalopram, 1 hr at 25° C., read-out: 5-HT reuptake binding Ki
pKi: −log10 of the molar value.
Would you mind telling me the reported pKi of each entry?

Field request: pKi | item: CNC1CCCC1Cc1c[nH]c2ccc(C#N)cc12 (stereo not drawn) 8.00 to 9.00

Which pKi value belongs to CN(Cc1ccccc1)C[C@H]1CCC[C@@H]1c1c[nH]c2ccc(C#N)cc12 (relative stereo) ? 7.00 to 8.00

Reported pKi, compound CNC[C@@H]1CCC[C@@H]1c1ccc2[nH]cc(C#N)c2c1 (relative stereo) : ____ 7.00 to 8.00

----------
# EXPERIMENTAL_SYSTEM: human serotonin transporters (Homo sapiens, UniProt P31645)
# Construct: expressed in transfected cells; membrane homogenates
# Sequence (P31645 whole entry): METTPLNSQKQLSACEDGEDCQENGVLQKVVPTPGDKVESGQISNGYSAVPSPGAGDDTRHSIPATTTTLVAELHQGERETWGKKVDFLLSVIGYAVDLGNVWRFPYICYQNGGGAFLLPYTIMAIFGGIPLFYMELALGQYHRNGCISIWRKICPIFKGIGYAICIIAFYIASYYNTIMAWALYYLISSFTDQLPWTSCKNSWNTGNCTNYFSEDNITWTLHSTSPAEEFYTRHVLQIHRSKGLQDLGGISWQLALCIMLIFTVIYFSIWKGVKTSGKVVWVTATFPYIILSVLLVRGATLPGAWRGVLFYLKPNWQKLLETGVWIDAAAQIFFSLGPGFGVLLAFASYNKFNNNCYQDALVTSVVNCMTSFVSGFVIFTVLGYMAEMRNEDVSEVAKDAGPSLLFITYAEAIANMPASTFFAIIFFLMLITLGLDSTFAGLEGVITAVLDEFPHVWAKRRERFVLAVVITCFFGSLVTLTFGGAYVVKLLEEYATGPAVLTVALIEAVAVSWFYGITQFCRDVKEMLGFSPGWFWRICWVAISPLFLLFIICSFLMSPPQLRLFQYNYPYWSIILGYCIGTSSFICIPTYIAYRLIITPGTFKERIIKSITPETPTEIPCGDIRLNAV
# ASSAY_PROCEDURE: Serotonin Transporter Binding Assay ([3H]-citalopram displacement, HEK-hSERT cell membranes)
# APPLIED_CONDITIONS: 1 nM [3H]-citalopram, 1 hr at 25° C., read-out: 5-HT reuptake binding Ki
pKi: −log10 of the molar value.
Give pKi for every item shown.

Would you kindly share the measured pKi for CCN(CC)C1CCCC1Cc1c[nH]c2ccc(C#N)cc12 (centres unmarked) ? 7.00 to 8.00

Recorded pKi of CN(C)C[C@H]1CCC[C@@H]1c1ccc2c(c1)c(C#N)cn2C (relative stereo) , please. 6.30 to 7.00

Query: pKi; subject: CCN(C)C1CCCC1Cc1c[nH]c2ccc(C#N)cc12 (centres unmarked) 8.00 to 9.00

Returns the measured pKi for the input compound. Input: N#Cc1ccc2[nH]cc(CC3CCCC3N3CCCC3)c2c1 (centres unmarked) 8.00 to 9.00

// returns reported pKi for input CN(C)C1CCCC1Cc1c[nH]c2ccc(C#N)cc12 (mixture of isomers) 8.00 to 9.00

Can you share its pKi? I mean this compound: CC([C@H]1CCCC1c1c[nH]c2ccc(C#N)cc12)N(C)C (single isomer, unassigned; diastereomer b) [Example 47] 8.00 to 9.00

So what's the measured pKi for this one? CNC[C@H]1CCC[C@@H]1c1ccc2[nH]cc(C#N)c2c1 (relative stereo) 8.00 to 9.00

# pKi lookup, item CNC[C@H]1CCC[C@@H]1c1c[nH]c2ccc(C#N)cc12 (relative stereo) 8.00 to 9.00

----------
# EXPERIMENTAL_SYSTEM: human serotonin transporters (Homo sapiens)
# Construct: expressed in transfected cells; membrane homogenates
# ASSAY_PROCEDURE: Serotonin Transporter Binding Assay ([3H]-citalopram displacement, HEK-hSERT cell membranes)
# APPLIED_CONDITIONS: 1 nM [3H]-citalopram, 1 hr at 25° C., read-out: 5-HT reuptake binding Ki
# Experimental: HEK-293 cells that stably express human serotonin transporters (HEK-hSERT cells) were grown at 37° C. in 5% CO2 as a monolayer in medium consisting of EMEM supplemented with 10% fetal bovine serum and G418 sulfate (500 μg/mL). […] Amount of radioligand bound in the presence and absence of competitor was analyzed by plotting (−)log drug concentration versus the amount of radioligand specifically bound. […]
pKi: −log10 of the molar value.
REPORTED_METRIC: pKi

Provide value of pKi for this record tested with human serotonin transporters (Homo sapiens): CCC([C@H]1CCC[C@@H]1c1c[nH]c2ccc(C#N)cc12)N(C)C (mixture of isomers) [Example 51] 6.30 to 7.00

# value lookup — system human serotonin transporters (Homo sapiens), readout pKi, item CN(C)C[C@H]1CCC[C@@H]1c1ccc2[nH]cc(C#N)c2c1 (relative stereo) 8.00 to 9.00

Look up pKi with human serotonin transporters (Homo sapiens) for this molecule: CCNC1CCCC1Cc1c[nH]c2ccc(C#N)cc12 (centres unmarked) 8.00 to 9.00

What reported pKi corresponds to CCN(C)C[C@H]1CCC[C@@H]1c1ccc2[nH]cc(C#N)c2c1 (relative stereo) on human serotonin transporters (Homo sapiens)? 6.30 to 7.00

# get_value(readout= pKi, system= human serotonin transporters (Homo sapiens)) for CN(Cc1ccccc1)C1CCCC1Cc1c[nH]c2ccc(C#N)cc12 (centres unmarked) 7.00 to 8.00

# get_value(readout= pKi, system= human serotonin transporters (Homo sapiens)) for CN(C)C[C@@H]1CCC[C@@H]1c1ccc2[nH]cc(C#N)c2c1 (relative stereo) 8.00 to 9.00

Item: CCNC[C@H]1CCC[C@@H]1c1ccc2[nH]cc(C#N)c2c1 (relative stereo) Test system: human serotonin transporters (Homo sapiens) Read-out: pKi Value: ? 6.30 to 7.00

Find the measured pKi: item CN(C)C[C@H]1CCC[C@@H]1c1c[nH]c2ccc(I)cc12 , target or system human serotonin transporters (Homo sapiens). 7.00 to 8.00
